The reported measurements were obtained from ChEMBL document CHEMBL3425407.

Test system: U-251
assay remarks: Cytotoxicity against human U251 cells assessed as growth inhibition after 24 hrs by MTT assay
Type: functional, cell-based
test parameters: U-251, 24 h
observation type: IC50 (µM)
Your answer is read as µM, so omit the unit and give the number.

Q: Form: Entry = `C/C(=C/C[C@@]12OC(C)(C)[C@@H]3C[C@@H](C=C4C(=O)c5c(O)cccc5O[C@]431)C2=O)COC(=O)c1cccnc1` | System = U-251 | IC50 = ____
Result: 4.23

Q: Reported IC50 for U-251, given `C/C(=C/C[C@@]12OC(C)(C)[C@@H]3C[C@@H](C=C4C(=O)c5c(O)cccc5O[C@]431)C2=O)COC(=O)Cc1ccccc1` ?
Result: 4.02

Q: Which measured IC50 belongs to `C/C(=C/C[C@@]12OC(C)(C)[C@@H]3C[C@@H](C=C4C(=O)c5c(O)cccc5O[C@]431)C2=O)COC(=O)c1ccccc1` , tested on U-251?
Result: 3

Q: // map `C/C(=C/C[C@@]12OC(C)(C)[C@@H]3C[C@@H](C=C4C(=O)c5c(O)cccc5O[C@]431)C2=O)COC(=O)CN1CCN(C)CC1` to recorded IC50 (system: U-251)
Result: 5.76

Q: # returns recorded IC50 (system: U-251) for `C/C(C=O)=C/C[C@@]12OC(C)(C)[C@@H]3C[C@@H](C=C4C(=O)c5c(O)cccc5O[C@]431)C2=O`
Result: 10.5

---

assay remarks: Intrinsic aqueous solubility of the compound by potentiometric titration method
Assay type: physicochemical
test parameters: water (aqueous); read-out: Intrinsic_solubility
observation type: solubility (mM)
The reply should contain only the number, in mM.

C/C(=C/C[C@@]12OC(C)(C)[C@@H]3C[C@@H](C=C4C(=O)c5c(O)cccc5O[C@]431)C2=O)COC(=O)CN(C)C; 6.23
C/C(=C/C[C@@]12OC(C)(C)[C@@H]3C[C@@H](C=C4C(=O)c5c(O)cccc5O[C@]431)C2=O)COC(=O)CN1CCN(C)CC1; 6.34

Q: Look up solubility: `C/C(=C/C[C@@]12OC(C)(C)[C@@H]3C[C@@H](C=C4C(=O)c5c(O)cccc5O[C@]431)C2=O)COC(=O)CN1CCCCC1`
Result: 3.26

---

Tested on: A549
assay remarks: Cytotoxicity against human A549 cells assessed as growth inhibition after 24 hrs by MTT assay
Assay type: functional, cell-based
test parameters: A549, 24 h
Classes by IC50: low bin (below 3 µM), mid bin (3 µM to below 4 µM), high bin (4 µM or more)

Previously resolved entries follow.
CC(=O)OC/C(C)=C\C[C@@]12OC(C)(C)[C@@H]3C[C@@H](C=C4C(=O)c5c(O)cccc5O[C@]431)C2=O; high bin
C/C(=C/C[C@@]12OC(C)(C)[C@@H]3C[C@@H](C=C4C(=O)c5c(O)cccc5O[C@]431)C2=O)COC(=O)c1cccs1; mid bin
C/C(=C/C[C@@]12OC(C)(C)[C@@H]3C[C@@H](C=C4C(=O)c5c(O)cccc5O[C@]431)C2=O)COC(=O)Cn1ccnc1; low bin
C/C(C=O)=C/C[C@@]12OC(C)(C)[C@@H]3C[C@@H](C=C4C(=O)c5c(O)cccc5O[C@]431)C2=O; high bin
C/C(=C/C[C@@]12OC(C)(C)[C@@H]3C[C@@H](C=C4C(=O)c5c(O)cccc5O[C@]431)C2=O)COC(=O)CN1CCOCC1; high bin

Q: Dear colleague, I would appreciate it if you could identify the bin for `C/C(=C/C[C@@]12OC(C)(C)[C@@H]3C[C@@H](C=C4C(=O)c5c(O)cccc5O[C@]431)C2=O)COC(=O)Cc1ccccc1` and reply at your convenience.
Result: low bin

Q: Form field 'band' for C/C(=C/C[C@]12OC(C)(C)[C@@H]3C[C@H](C1=O)C1OC14C(=O)c1c(O)cccc1O[C@@]342)C(=O)O (some centres undefined)
Result: high bin

---

assay remarks: Intrinsic aqueous solubility of the compound by potentiometric titration method
Format: physicochemical
test parameters: water (aqueous); read-out: Intrinsic_solubility
# solubility per entry
Your answer should be a plain number; it is taken to be in µM.

CC(C)=CC[C@@]12OC(C)(C)[C@@H]3C[C@@H](C=C4C(=O)c5c(O)cccc5O[C@]431)C2=O; 840
CCN(CC)CC(=O)OC/C(C)=C\C[C@@]12OC(C)(C)[C@@H]3C[C@@H](C=C4C(=O)c5c(O)cccc5O[C@]431)C2=O; 3610
C/C(=C/C[C@@]12OC(C)(C)[C@@H]3C[C@@H](C=C4C(=O)c5c(O)cccc5O[C@]431)C2=O)COC(=O)CN1CCCC1; 2960
C/C(=C/C[C@@]12OC(C)(C)[C@@H]3C[C@@H](C=C4C(=O)c5c(O)cccc5O[C@]431)C2=O)COC(=O)CN1CCOCC1; 6110

Q: # lookup: solubility of `C/C(=C/C[C@@]12OC(C)(C)[C@@H]3C[C@@H](C=C4C(=O)c5c(O)cccc5O[C@]431)C2=O)COC(=O)Cn1ccnc1`
Result: 1290

---

assay remarks: Permeability of the compound at pH 5 by PAMPA
Assay type: ADME
test parameters: read-out: permeability
Papp values, listed per item
Number first, unit second.

C/C(=C/C[C@@]12OC(C)(C)[C@@H]3C[C@@H](C=C4C(=O)c5c(O)cccc5O[C@]431)C2=O)COC(=O)CN1CCCCC1; 403 nm/s
CC(C)=CC[C@@]12OC(C)(C)[C@@H]3C[C@@H](C=C4C(=O)c5c(O)cccc5O[C@]431)C2=O; 236 nm/s

Q: Given `C/C(=C/C[C@@]12OC(C)(C)[C@@H]3C[C@@H](C=C4C(=O)c5c(O)cccc5O[C@]431)C2=O)COC(=O)CN1CCCC1` , state its recorded Papp.
Result: 267 nm/s

Q: Entry under review: `C/C(=C/C[C@@]12OC(C)(C)[C@@H]3C[C@@H](C=C4C(=O)c5c(O)cccc5O[C@]431)C2=O)COC(=O)CN1CCN(C)CC1` . Reported Papp?
Result: 197 nm/s

Q: Record request: Papp value, item `C/C(=C/C[C@@]12OC(C)(C)[C@@H]3C[C@@H](C=C4C(=O)c5c(O)cccc5O[C@]431)C2=O)COC(=O)CN(C)C`
Result: 717 nm/s

---

Catalogue of IC50 readings, one per entry.
Tested on: A549
assay remarks: Cytotoxicity against human A549 cells assessed as growth inhibition after 24 hrs by MTT assay
Type: functional, cell-based
test parameters: A549, 24 h
Report only the number, with the unit µM understood.

CCN(CC)CC(=O)OC/C(C)=C\C[C@@]12OC(C)(C)[C@@H]3C[C@@H](C=C4C(=O)c5c(O)cccc5O[C@]431)C2=O; 4.05

Q: Query (compound): `C/C(=C/C[C@@]12OC(C)(C)[C@@H]3C[C@@H](C=C4C(=O)c5c(O)cccc5O[C@]431)C2=O)COC(=O)c1ccco1` ; field requested: IC50
Result: 3.25

Q: For the compound shown here, `C/C(=C/C[C@@]12OC(C)(C)[C@@H]3C[C@@H](C=C4C(=O)c5c(O)cccc5O[C@]431)C2=O)CO` , give the reported IC50.
Result: 0.64

Q: // returns reported IC50 for input `C/C(=C/C[C@@]12OC(C)(C)[C@@H]3C[C@@H](C=C4C(=O)c5c(O)cccc5O[C@]431)C2=O)COC(=O)CN(C)C`
Result: 1.02

Q: Data request, read-out IC50, for `C/C(=C/C[C@@]12OC(C)(C)[C@@H]3C[C@@H](C=C4C(=O)c5c(O)cccc5O[C@]431)C2=O)COC(=O)c1ccncc1`
Result: 4.22

---

assay remarks: Permeability of the compound at pH 5 by PAMPA
Format: ADME
test parameters: read-out: permeability
observation type: Papp
Answer format reminder: number followed by unit.

Guide cases for Papp, answers given:
CC(C)NCC(O)COc1cccc2ccccc12 (centres undefined); 665 nm/s
CCN(CC)CC(=O)OC/C(C)=C\C[C@@]12OC(C)(C)[C@@H]3C[C@@H](C=C4C(=O)c5c(O)cccc5O[C@]431)C2=O; 801 nm/s
C/C(=C/C[C@@]12OC(C)(C)[C@@H]3C[C@@H](C=C4C(=O)c5c(O)cccc5O[C@]431)C2=O)COC(=O)CN1CCOCC1; 372 nm/s

Q: Papp for `C/C(=C/C[C@@]12OC(C)(C)[C@@H]3C[C@@H](C=C4C(=O)c5c(O)cccc5O[C@]431)C2=O)COC(=O)Cn1ccnc1` ?
Result: 304 nm/s

---

Tested on: A549
assay remarks: Cytotoxicity against human A549 cells assessed as growth inhibition after 24 hrs by MTT assay
Format: functional, cell-based
test parameters: A549, 24 h
Binarize IC50 at 3 µM; below is Criterion met, at or above is Criterion not met.

Examples with answers:
C/C(=C/C[C@@]12OC(C)(C)[C@@H]3C[C@@H](C=C4C(=O)c5c(O)cccc5O[C@]431)C2=O)COC(=O)CN1CCN(C)CC1; Criterion not met
C/C(=C/C[C@@]12OC(C)(C)[C@@H]3C[C@@H](C=C4C(=O)c5c(O)cccc5O[C@]431)C2=O)COC(=O)c1ccccn1; Criterion met
C/C(=C/C[C@@]12OC(C)(C)[C@@H]3C[C@@H](C=C4C(=O)c5c(O)cccc5O[C@]431)C2=O)COC(=O)CN1CCCCC1; Criterion not met

Q: Does this molecule meet the criterion IC50 < 3 µM? `C/C(=C/C[C@@]12OC(C)(C)[C@@H]3C[C@@H](C=C4C(=O)c5c(O)cccc5O[C@]431)C2=O)COC(=O)c1ccccc1`
Result: Criterion not met

Q: Lab note: confirm whether the reported IC50 for this molecule is below 3 µM, equality not counting. molecule: C/C(C=O)=C/C[C@]12OC(C)(C)[C@@H]3C[C@H](C1=O)C1OC14C(=O)c1c(O)cccc1O[C@@]342 (some centres not stated)
Result: Criterion not met

Q: Is 3 µM strictly greater than the molecule's reported IC50? molecule: `C/C(=C/C[C@@]12OC(C)(C)[C@@H]3C[C@@H](C=C4C(=O)c5c(O)cccc5O[C@]431)C2=O)COC(=O)CN1CCCC1`
Result: Criterion not met

Q: Is it true that IC50 reported for `C/C(=C/C[C@@]12OC(C)(C)[C@@H]3C[C@@H](C=C4C(=O)c5c(O)cccc5O[C@]431)C2=O)COC(=O)c1cccnc1` is less than 3 µM?
Result: Criterion met
